Tested on: EKVX NSCLC
experimental_protocol: NCI-60 one-dose screen, 48 h (100 = growth as untreated, 0 = no growth, -100 = all killed)
stated_conditions: 10 µM unless noted
About 83,000 compounds went through this panel and 20% of them were active in at least one assay; those are over-represented in the sample as a whole.
The following molecules are listed with their measured growth values.
State the answer as a number, implicitly in %.

Examples from the recorded data:
| molecule | tgt | quantity | numeric_readout |
| --- | --- | --- | --- |
| Clc1ccc(N2N=C(c3cccc(Nc4ccncc4)c3)CC2c2ccc3c(c2)OCO3)cc1 (centres undefined) | EKVX NSCLC | growth | 74.8 |
| COc1ccc(C(=O)/C=C/c2c(OC)cc(OC)cc2OC)c(OC)c1 | EKVX NSCLC | growth | 59.1 |
| CN1CCN(C(=O)[C@]2(C)CC[C@]3(C)CC[C@]4(C)C(=CC(=O)[C@@H]5[C@@]6(C)CCC(=O)NC(C)(C)[C@@H]6CC[C@]54C)[C@@H]3C2)CC1 | EKVX NSCLC | growth | 93.9 |

Incoming: Recorded growth for C[C@H]1[C@H](C)CC[C@]2(CO)CC[C@]3(C)C(=CC[C@@H]4[C@@]5(C)CCCNC(C)(C)[C@@H]5CC[C@]43C)[C@H]12 , please?
Outgoing: 19.4

Value source: PubChem BioAssay (NCI)
